Test: Lipophilicity, log P of the compound at pH 7.5 by reversed phase HPLC analysis
Type: physicochemical
Settings: buffer
Measurement Label: logP

{"columns": ["Substance Smiles", "Observed Result"],
 "data": [
  ["CCc1cc(CC)n2nc(-c3ccc(OCCF)cc3)c(CC(=O)N(CC)CC)c2n1", 2.5],
  ["CCc1c(C)nc2c(CC(=O)N(CC)CC)c(-c3ccc(OC)cc3)nn2c1C", 2.78],
  ["CCN(CC)C(=O)Cc1c(-c2ccc(OC)cc2)nn2c(C)c(Cl)c(C)nc12", 2.99],
  ["CCN(CC)C(=O)Cc1c(-c2ccc(OC)cc2)nn2c(C)c(C)c(C)nc12", 2.45],
  ["CCN(CC)C(=O)Cc1c(-c2ccc(OC)cc2)nn2c(C)c(CC(C)=O)c(C)nc12", 2.57]
]}
